- experiment.notes: PMM cytotoxicity assay
- Format: cell-based
- conditions.used: mouse, primary peritoneal mouse macrophages (PMM); Table 4; geometric mean of at least two independent tests
quantity: CC50 at 3 days

[
  {
    "cpd.smiles": "Cc1nn(C2CCC2)cc1C(=O)Nc1ccc2c(c1)B(O)OC2",
    "quantity": "CC50 at 3 days",
    "result": "> 64 µM"
  },
  {
    "cpd.smiles": "O=C(Nc1ccc2c(c1)B(O)OC2)c1ccc(F)cc1C(F)(F)F",
    "quantity": "CC50 at 3 days",
    "result": "> 64 µM"
  },
  {
    "cpd.smiles": "Cc1nn(CCC(F)(F)F)cc1C(=O)Nc1ccc2c(c1)B(O)OC2",
    "quantity": "CC50 at 3 days",
    "result": "> 64 µM"
  },
  {
    "cpd.smiles": "Cc1c(C(=O)Nc2ccc3c(c2)B(O)OC3)cnn1CCC(F)(F)F",
    "quantity": "CC50 at 3 days",
    "result": "> 64 µM"
  },
  {
    "cpd.smiles": "Cn1nc(C(=O)Nc2ccc3c(c2)B(O)OC3)cc1-c1ccccn1",
    "quantity": "CC50 at 3 days",
    "result": "> 64 µM"
  },
  {
    "cpd.smiles": "Cn1nc(-c2ccccn2)cc1C(=O)Nc1ccc2c(c1)B(O)OC2",
    "quantity": "CC50 at 3 days",
    "result": "> 64 µM"
  },
  {
    "cpd.smiles": "O=C(Nc1ccc2c(c1)B(O)OC2)c1cn(C2CCOCC2)nc1C(F)(F)F",
    "quantity": "CC50 at 3 days",
    "result": "> 64 µM"
  },
  {
    "cpd.smiles": "O=C(Nc1ccc2c(c1)B(O)OC2)c1cn(C(F)(F)F)nc1C(F)(F)F",
    "quantity": "CC50 at 3 days",
    "result": "> 64 µM"
  },
  {
    "cpd.smiles": "Cc1cccc(-n2ncc(C(=O)Nc3ccc4c(c3)B(O)OC4)c2C)n1",
    "quantity": "CC50 at 3 days",
    "result": "> 64 µM"
  },
  {
    "cpd.smiles": "Cc1nn(-c2ccccn2)cc1C(=O)Nc1ccc2c(c1)B(O)OC2",
    "quantity": "CC50 at 3 days",
    "result": "> 64 µM"
  },
  {
    "cpd.smiles": "COc1ccccc1-n1cc(C(=O)Nc2ccc3c(c2)B(O)OC3)c(C)n1",
    "quantity": "CC50 at 3 days",
    "result": "> 64 µM"
  },
  {
    "cpd.smiles": "COc1cccc(-n2ncc(C(=O)Nc3ccc4c(c3)B(O)OC4)c2C)n1",
    "quantity": "CC50 at 3 days",
    "result": "> 64 µM"
  }
]
